# conditions used: 298.15 K; 101.33 kPa; Liquid; Vibrating tube method
measurement label: mass density (kg/m3)
Respond numerically; units are kg/m3 and should not be typed.

Below, each entry is followed by its recorded mass density result.
- smiles code: "CCCCCCCCCCCC"
  mass density [kg/m3]: 741.54
- smiles code: "O=Cc1ccccc1"
  mass density [kg/m3]: 1042.94
- smiles code: "CCCCCCCCCCCCCC"
  mass density [kg/m3]: 759.27
- smiles code: "CCCCCCCCCCCCCCCC"
  mass density [kg/m3]: 770.21

We now examine a further molecule.
Looking for the measured mass density of CCCCCCCCCC , can you help? 726.43
